Test system: S. aureus
TEST METHOD NOTES: Antibacterial susceptibility testing, IC90 determination with 10% human serum (STA + 10% HS)
Type: cell-based, Staphylococcus aureus
CONDITION CONTEXT: Staphylococcus aureus, human serum at final concentration of 10%, read-out: STA + 10% HS (361.169) IC90
METRIC NAME: IC90

The cases that follow already have their IC90 on record.
[[record]]
compound = "COc1cncc(C(=O)Nc2ccc(/C=C/C(=O)N3CC4C=C(c5ccsc5)CC4C3)cn2)c1 (centres unmarked)"
result = "< 0.23 µg/mL"

[[record]]
compound = "CC1(C)Oc2cc(/C=C/C(=O)N3CC4C=C(c5nccs5)CC4C3)cnc2NC1=O (centres unmarked)"
result = "< 0.2 µg/mL"

[[record]]
compound = "COc1cncc(C(=O)Nc2ccc(/C=C/C(=O)N3CC4C=C(c5ccncc5)CC4C3)cn2)c1 (centres unmarked)"
result = "< 0.23 µg/mL"

[[record]]
compound = "O=C1Nc2ncc(/C=C/C(=O)N3CC4C=C(c5ccccc5)CC4C3)cc2CN2CCOCC12 (centres unmarked)"
result = "< 0.22 µg/mL"


// sample C=CCN1C[C@@H]2CN(C(=O)/C=C/c3cnc4c(c3)CN(C)CC(=O)N4)C[C@@H]2C1 , its IC90 was > 24.1 µg/mL
